test system: NCI-H226 lung; test: NCI-60 one-dose screen, 48 h (100 = growth as untreated, 0 = no growth, -100 = all killed); conditions: 10 µM unless noted
About 83,000 compounds went through this panel and 20% of them were active in at least one assay; those are over-represented in the sample as a whole.
In this section, each of the compounds is paired with its reported growth.
Please reply with the bare figure in % and do not write the unit itself.

Example results:
compound	recorded.measurement
Clc1ccc2c(NCCNc3nc(-c4ccccc4)cc(-c4ccccc4)n3)ccnc2c1	-56.2
Oc1cccc2oc(=S)[nH]c12	106
O=C(NC1=CC(=O)c2ccccc2C1=O)c1ccccc1	37.3
Cn1c2c(Cl)c(Cl)ccc2c2c(C#N)c[nH]c(=O)c21	94.5
C(=C\c1c[nH]c2ccccc12)/c1ccc2ccccc2n1	76.5

Can you look up the measured growth of CCC(=O)c1c(C)[nH]c(C)c1C for me?
101

Can you look up the measured growth of Cc1ccc(-c2nc3ccc(Cl)cc3c(=O)n2N2C(=O)CSC2c2ccccc2Cl)cc1 (configuration not stated) for me?
86.6

Can you look up the measured growth of C=C(C)[C@@H]1CC[C@]2(C)[C@H](CC=C3[C@@H]4CC(C)(C)CC[C@]4(C(=O)OC)CC[C@]32C)[C@@]1(C)CC/C(N)=N/O for me?
2.13

Can you look up the measured growth of COc1ccc2c3c(c4ccccc4cc13)C(=O)N(CCN(C)CCN)C2=O for me?
-67.4

Can you look up the measured growth of COc1cccc(-c2nn(-c3ccccc3)cc2-c2ccnc(NCCCN)c2)c1 for me?
78.7

Can you look up the measured growth of Oc1cc(/C=C/c2nc(N3CCOCC3)c3cc(Cl)c(Cl)cc3n2)cc(O)c1O for me?
85.8

Can you look up the measured growth of N#CC1=C(N)Oc2c(sc3c(F)cccc23)C1c1ccc(Cl)cc1 (configuration not stated) for me?
74.9

---

Tested on: A549/ATCC NSCLC
Assay: NCI-60 one-dose screen, 48 h (100 = growth as untreated, 0 = no growth, -100 = all killed)
Details: 10 µM unless noted
Procedure: Growth inhibition of the A549/ATCC human Non-Small Cell Lung tumor cell line is measured as a screen for anti-cancer activity. Cells are grown in 96 well plates and exposed to the test compound for 48 hours. Compounds are tested at a single concentration, which is 10^-5 M for most compounds. The reported endpoint is percent growth (GI% or GIPRCNT), where numbers from 0 - 100% represent growth inhibition, and numbers from -100% - 0 represent cell death. […]
The panel holds about 83,000 compounds, 20% with a hit somewhere; the sample as a whole holds those more often.
endpoint: growth (%)
Please reply with the bare figure in % and do not write the unit itself.

molecule	recorded.measurement
C=C(C)[C@@H]1CC[C@]2(C(=O)O)CC[C@]3(C)[C@H](CC[C@@H]4[C@@]5(C)C/C(=C/c6cccc(I)c6)C(=O)C(C)(C)[C@@H]5CC[C@]43C)[C@@H]12	17.2

Can you look up the measured growth of COc1ccc(NC(=O)c2ccoc2COc2ccccc2)cc1 for me?
102

Can you look up the measured growth of C#Cc1cc2c(N)c(C(=O)c3cc(OC)c(OC)c(OC)c3)[nH]c2cc1OC for me?
45.4

Can you look up the measured growth of O=C(/C=C\c1ccc2c(c1)OCO2)/C=C/c1ccc2c(c1)OCO2 for me?
92.9

Can you look up the measured growth of NCCNc1nc(-c2ccccc2)nc2nc(-c3ccccc3)oc12 for me?
93.6

Can you look up the measured growth of Nc1ncnc2nc(Br)[nH]c12 for me?
77.1

Can you look up the measured growth of Cc1cc(N2CCCCC2)nc(N(CCCNc2ccnc3cc(Cl)ccc23)Cc2ccco2)n1 for me?
18.4

Can you look up the measured growth of CC(=O)NC1=C(C#N)C(c2ccccc2Cl)c2c(ccc3ccccc23)O1 (stereo not given) for me?
67.1

Can you look up the measured growth of CC1(c2ccccc2)OC1C(=O)O (stereo not given) for me?
105

Can you look up the measured growth of CN1CCN(CCOc2ccc(-c3cnc4c(-c5ccccc5F)cnn4c3)cc2)CC1 for me?
22.4

---

tested on: IGROV1 ovarian; experiment: NCI-60 one-dose screen, 48 h; conditions: 10 µM unless noted
Compounds without any hit were thinned out: in the full panel of roughly 83,000, 20% have a hit. The source made the active and inactive calls. The calls were made as follows: active = growth percent below 10; inactive = the rest.
Could you please pick one outcome from this set? active, inactive

Examples from the recorded data:
compound	assigned.category
COc1cnc2c(c1)C(=O)c1c-2n(CCCNC2=NCCS2)c(=O)c2cc([N+](=O)[O-])ccc12	active
O=C1CN(c2ccccc2)C(=O)C1C(=O)Nc1ccc(Cl)c(Cl)c1 (stereo not given)	inactive
N#C/C(=C\c1ccc(-c2ccccc2)o1)c1nc(-c2ccco2)cs1	inactive
O=C(/C=C/c1cccc2ccccc12)Nc1ncc(Cc2ccccc2)s1	inactive

Look up the recorded call for COc1cnc2c(c1)C(=O)c1c-2n(CCCN2CCN(CCO)CC2)c(=O)c2cc([N+](=O)[O-])ccc12 in this test.
inactive

---

tested on: T-47D breast; assay: NCI-60 one-dose screen, 48 h (100 = growth as untreated, 0 = no growth, -100 = all killed); conditions: 10 µM unless noted
The panel holds about 83,000 compounds, 20% with a hit somewhere; the sample as a whole holds those more often.
In this section, each of the molecules is paired with its reported growth.
Please reply with the bare figure in % and do not write the unit itself.

Example results:
molecule	recorded.measurement
NC1=NN(c2ccccc2)C(=O)/C1=C/c1ccc(Cl)cc1	74.1
S=c1[nH]nc2ccccn12	106
O=[N+]([O-])c1ccc(/C=N\Nc2ccccc2)cc1	72.2

Can you look up the measured growth of OCCNc1nc(Nc2ccc(Cl)c(Cl)c2)nc2ccccc12 for me?
67.9

Can you look up the measured growth of COc1cc(-c2cc(-c3nc4cc(Cl)c(Cl)cc4[nH]3)[nH]n2)cc(OC)c1OC for me?
-10.8

Can you look up the measured growth of Cn1cc(-c2nc(-c3c[nH]c4ncccc34)cs2)c2cc(Cl)ccc21 for me?
38.9

---

test system: TK-10 renal; assay: NCI-60 one-dose screen, 48 h; conditions: 10 µM unless noted
Compounds without any hit were thinned out: in the full panel of roughly 83,000, 20% have a hit. Activity calls are given as the source filed them. How the source made its calls: active means growth percent below 10; inactive means the rest.
Could you please pick one outcome from this set? 1.0 (active), 0.0 (inactive)

Examples from the recorded data:
compound	assigned.category
Nc1ccc(Br)cn1	0.0
C#CCn1c2c(c3ccccc31)C[C@]1(C)[C@H]3CC[C@@H]4[C@@H]5C(=CCC[C@H]5C(=C)C)CC[C@@]4(C)[C@]3(C)CC[C@H]1C2(C)C	0.0
COC(=O)[C@]12CC[C@@H](C)[C@H](C)[C@@H]1C1=CC(=O)[C@@H]3[C@@]4(C)C[C@@H](OC(C)=O)[C@H](OC(C)=O)[C@@](C)(COC(C)=O)[C@@H]4C(=O)C[C@@]3(C)[C@]1(C)CC2	0.0
N=C(N)c1ccc(S(N)(=O)=O)cc1	0.0
C#Cc1cccc(NC(=O)C2CCCN(C(=O)CCl)C2)c1 (configuration not stated)	0.0

Look up the recorded call for CC(C)C[C@@H](NC(=O)[C@@H](Cc1ccccc1)NC(=O)c1cnccn1)B1O[C@H]2[C@H](O)[C@@H](C(=O)NCCCC[C@@H]3NC(=O)[C@@H](Cc4ccccc4)NC(=O)[C@H](CC(=O)O)NC(=O)CNC(=O)[C@H](CCCN=C(N)N)NC3=O)O[C@@H](CN)[C@H]2O1 in this test.
1.0

Look up the recorded call for NCCn1cc(-c2nc(-c3c[nH]c4ncccc34)cs2)c2ccccc21 in this test.
0.0

Look up the recorded call for COc1ccc(OC)c(-c2c(C#N)c(-c3ccco3)nc3c2c(-c2ccccc2)nn3-c2ccccc2)c1 in this test.
0.0

---

tested on: M14 melanoma; experiment: NCI-60 one-dose screen, 48 h; settings: 10 µM unless noted
The panel holds about 83,000 compounds, 20% with a hit somewhere; the sample as a whole holds those more often. The source made the active and inactive calls. Rule for the calls: active = growth percent below 10; inactive = the rest.
Could you please pick one outcome from this set? class 1 = active, class 0 = inactive

Examples from the recorded data:
molecule	assigned.category
Nc1c2c(nc3ccc(Cl)cc13)CC(c1ccccc1)CC2=O (stereo not given)	class 0
CC(C)=CCC[C@](C)(O)[C@H]1CC[C@]2(C)[C@@H]1CC[C@@H]1[C@@]3(C)C/C(=C/c4cccc([N+](=O)[O-])c4)C(=O)C(C)(C)[C@@H]3CC[C@]12C	class 0
Cc1cc2nc3c4cc(Cl)ccc4n(CCN(C)C)c3nc2cc1C	class 1
N=C(N)c1ccc(-c2ccc(-c3cc(F)cc(F)c3)o2)nc1	class 0

Note: attention shifts to another entry.
Look up the recorded call for C[N+](C)(CCCCCC[N+](C)(C)C1c2ccccc2-c2ccccc21)C1c2ccccc2-c2ccccc21 in this test.
class 0

Just for reference, PubChem BioAssay (NCI) is where these values come from.
